B1: SNAP91 (parent)
chain: FAAPSPATTASPAKVDSSGVIDLF

# Variants of: B1
# protocol_notes: protein stability index of a GFP-peptide fusion (GPS, HEK-293T) (PSI 1-6); higher = more stable;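 also: lentivirally expressed fusions sorted by FACS into six bins by GFP to DsRed ratio, PSI derived from sequencing read proportions per bin multiplied by bin number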
# study_conditions: c terminus: a fixed tail appended
# binarize protein stability index: threshold 2 inclusive, high side Yes, low side No

Here are 5 variants together with their reported answers.
Record `P12D` ; criterion: protein stability index no lower than 2. Met?
Yes

Could you do the same for `F1C` , please?
Yes

Could you do the same for `G19L` , please?
Yes

Could you do the same for `A3P` , please?
Yes

Could you do the same for `K14W` , please?
No

***
Record `L23Y` ; criterion: protein stability index no lower than 2. Met?
Yes

Could you do the same for `G19D` , please?
Yes

Could you do the same for `P4S` , please?
No

Could you do the same for `F1V` , please?
Yes

Could you do the same for `S17C` , please?
No

Could you do the same for `S17F` , please?
Yes

Could you do the same for `K14M` , please?
Yes

Could you do the same for `A3T` , please?
Yes

Could you do the same for `A2V` , please?
No

Could you do the same for `T9S` , please?
Yes

Could you do the same for `V20D` , please?
Yes

Could you do the same for `V20L` , please?
Yes
